Source: ChEMBL document CHEMBL4513146

test system: Klebsiella pneumoniae; settings: Concentration 32 ug.mL-1;; ASSAY_TEST Inhibition of Bacterial Growth; detection method Absorption (OD600); MEDIA CAMHB; plate type 384well; NBS; CORNING #3640; time 18 hr
Description: Antibacterial activity against Klebsiella pneumoniae MDR ATCC 70063 (CO-ADD:GN_003); MIC in CAMBH media using NBS plates, by OD(600)
Results with a measured potency or affinity are listed apart.
measurement type: Inhibition (%)
Give bare numbers, in %.

Exam item: I'm curious: which Inhibition was measured for Cc1ccc(Oc2nc3ccccc3n3c(=O)n(CC(=O)Nc4cccc(C(F)(F)F)c4)nc23)cc1 tested on Klebsiella pneumoniae?
Marked response: 8.2

Exam item: What do you get for COc1ccc(CNC(=O)Cn2nc3c(SC4CCCCC4)nccn3c2=O)cc1 ?
Marked response: 14.45

Exam item: What do you get for Cc1nnc2c(SCC(=O)N3CCN(c4ccc(F)cc4)CC3)nc3ccccc3n12 ?
Marked response: 12.85

Exam item: What do you get for CCOC(=O)N1CCN(C(=O)CCc2nnc3c4cc(-c5ccccc5)nn4ccn23)CC1 ?
Marked response: 14.35

Exam item: What do you get for O=C(Cn1nc2c(Oc3ccccc3)nccn2c1=O)Nc1ccccc1C(F)(F)F ?
Marked response: 6.19

State the recorded Inhibition for every item in the following list.
1. Cc1ccccc1Cn1nc2ccc(-c3ccccc3)nn2c1=O
2. Cc1cccc(N(CC(=O)OC(C)(C)C)S(=O)(=O)c2cccn3c(C)nnc23)c1
3. COc1cccc(Sc2nc3ccccc3n3c(=O)n(CC(=O)Nc4c(C)cc(C)cc4C)nc23)c1
4. CCCc1nnc2c(=O)n(CC(=O)Nc3ccc(Cl)c(Cl)c3)c3ccccc3n12
5. O=C(Cn1nc2ccc(-c3ccc(Cl)cc3)nn2c1=O)N1CCN(c2ccccc2F)CC1

Marked response:
[7.15, 8.25, 4.89, 5.7, 1.3]

State the recorded Inhibition for every item in the following list.
1. Cc1[nH]c2ccccc2c1C(=O)CSc1nnc2c(=O)n(-c3ccccc3)ccn12
2. Cc1cc(C)c(NC(=O)Cn2nc3c(Sc4cccc(F)c4)nccn3c2=O)c(C)c1
3. CCOC(=O)c1cccc(NC(=O)Cn2nc3c4cc(-c5ccc(C)c(C)c5)nn4ccn3c2=O)c1
4. CCCCN(CC)C(=O)CSc1nnc2c(=O)n(Cc3ccccc3F)ccn12
5. O=C(Cn1nc2c(Oc3ccccc3)nccn2c1=O)Nc1ccccc1Cl

Marked response:
1: 21.07; 2: 9.01; 3: -4.81; 4: 7.9; 5: 5.8

State the recorded Inhibition for every item in the following list.
1. Cc1ccc(Nc2cc(C)n3c(=O)n(CCOc4ccc(F)cc4)nc3n2)cc1
2. O=c1c2sccc2n2c(=O)n(Cc3cccc(F)c3)nc2n1Cc1cccs1
3. Cc1ccc(-c2ccc3nnc(CCC(=O)NCc4cccc(Br)c4)n3n2)cc1C
4. CCOc1ccc(-n2ccn3c(SC(CC)C(=O)Nc4cc(F)ccc4F)nnc3c2=O)cc1 (stereo not given)

Marked response:
19.26
-6.06
-2.24
11.22

State the recorded Inhibition for every item in the following list.
1. Cc1ccc(-c2ccc3nn(CC(=O)Nc4cccc(Cl)c4)c(=O)n3n2)cc1C
2. COc1ccc(NC(=O)Cn2nc3c4cc(-c5ccc(C)c(C)c5)nn4ccn3c2=O)cc1
3. N#Cc1cccc(NC(=O)CSc2nnc3c4cc(-c5ccc(F)cc5)nn4ccn23)c1
4. O=S(=O)(c1ccc2nncn2c1)N(Cc1ccccc1F)c1cccc(F)c1

Marked response:
4.06
9.06
16.47
-5.56

State the recorded Inhibition for every item in the following list.
1. COc1ccccc1-n1ccn2c(SCC(=O)Nc3ccc4c(c3)OCCO4)nnc2c1=O
2. Cc1cccc(C)c1NC(=O)CSc1nc2ccccc2n2c(C)nnc12
3. COc1ccc(NC(=O)CSc2nc3ccccc3n3cnnc23)cc1OC
4. COc1ccc(C)cc1NC(=O)Cn1nc2c(N3CCSCC3)nc3ccccc3n2c1=O
5. COc1ccc2[nH]cc(C(=O)CSc3nnc4c(=O)n(-c5ccc(F)cc5)ccn34)c2c1
6. COc1cccc(Oc2nccn3c(=O)n(CC(=O)Nc4cc(F)ccc4F)nc23)c1
7. CSc1cccc(NC(=O)Cn2nc3c(Sc4ccccc4)nccn3c2=O)c1
8. COc1cccc(-n2ccn3c(SCc4ccc(F)cc4)nnc3c2=O)c1

Marked response:
[16.4, 9.22, 13.64, 14.66, 12.89, 3.2, 1.1, 3.28]

State the recorded Inhibition for every item in the following list.
1. COc1ccc(C(=O)CSc2nnc3c(=O)n(-c4ccc(F)cc4)ccn23)cc1
2. COc1ccc(-c2cc3c4nn(CC(=O)Nc5ccc(C)cc5C)c(=O)n4ccn3n2)cc1
3. COc1ccccc1-n1ccn2c(SCc3cccc(F)c3)nnc2c1=O

Marked response:
10.95
11.47
7.21

State the recorded Inhibition for every item in the following list.
1. COc1cccc(CN(c2cccc(F)c2)S(=O)(=O)c2ccc3nnc(C)n3c2)c1
2. CSc1cccc(NC(=O)Cn2c(=O)c3nnc(C(C)C)n3c3ccccc32)c1
3. Cc1nnc2ccc(S(=O)(=O)N(Cc3ccc(Cl)cc3)c3cccc(F)c3)cn12

Marked response:
[3.28, 10.43, 9.13]

State the recorded Inhibition for every item in the following list.
1. O=C(Cn1nc2ccc(Sc3cccc(F)c3)nn2c1=O)Nc1cccc(C(F)(F)F)c1
2. Cc1ccc(C)c(Cn2nc3n(CCC(C)C)c(=O)c4sccc4n3c2=O)c1
3. Cc1cc(C)c(NC(=O)Cn2nc3ccc(SC4CCCCC4)nn3c2=O)c(C)c1

Marked response:
[3.15, 11.36, 7.83]
